The measured values listed here are drawn from patent US20110008461A1.

Biological target: Rat Liver Cytosolic Phosphoenolpyruvate Carboxykinase (Rattus norvegicus, UniProt P07379)
Sequence (P07379 whole entry): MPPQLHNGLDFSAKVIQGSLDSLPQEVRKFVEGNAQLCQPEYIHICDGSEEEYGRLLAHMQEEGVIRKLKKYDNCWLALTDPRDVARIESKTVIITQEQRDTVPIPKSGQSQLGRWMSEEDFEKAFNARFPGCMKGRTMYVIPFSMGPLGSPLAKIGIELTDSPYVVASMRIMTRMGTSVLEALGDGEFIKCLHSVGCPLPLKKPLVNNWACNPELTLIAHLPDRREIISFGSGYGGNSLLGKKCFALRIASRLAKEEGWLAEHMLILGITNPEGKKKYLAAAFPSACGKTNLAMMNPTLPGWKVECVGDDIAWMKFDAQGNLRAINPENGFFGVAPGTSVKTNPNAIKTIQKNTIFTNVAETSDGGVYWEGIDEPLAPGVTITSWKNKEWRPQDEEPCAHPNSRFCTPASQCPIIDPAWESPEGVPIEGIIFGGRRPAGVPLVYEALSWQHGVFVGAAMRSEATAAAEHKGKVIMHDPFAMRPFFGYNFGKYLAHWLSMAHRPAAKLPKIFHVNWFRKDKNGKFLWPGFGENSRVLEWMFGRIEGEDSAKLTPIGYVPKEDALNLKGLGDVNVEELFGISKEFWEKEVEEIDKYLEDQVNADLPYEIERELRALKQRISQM
Experiment: Continuous spectrophotometric PEPCK inhibition assay coupled to malate dehydrogenase (preliminary screen, inhibition patterns, Dixon plots);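 further: PEPCK activity followed continuously via malate dehydrogenase coupling, where OAA reduction consumes NADH, seen as falling absorbance at 340 nm, run at 35 °C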
Settings: PEP varied substrate
value_kind: Pattern of Inhibition

> print(dat)
                                   molecule             value.kind  recorded.value
1  O=P(O)(O)CP(=O)(O)O [Compound 29, Methanediphosphonate]  Pattern of Inhibition  noncompetitive
2  O=S(=O)(O)CS(=O)(=O)O [Compound 31, Methanedisulfonate]  Pattern of Inhibition  noncompetitive

====

Biological target: Rat Liver Cytosolic Phosphoenolpyruvate Carboxykinase (Rattus norvegicus)
Test: Continuous spectrophotometric PEPCK inhibition assay coupled to malate dehydrogenase (preliminary screen, inhibition patterns, Dixon plots)
Conditions: read-out: Ki, slope effect (Kis); noncompetitive; PEP varied substrate; Cleland kinetics program
value_kind: pKi
Answers are plain numbers, as −log10 of the molar value.

> print(dat)
                                   compound  value.kind  recorded.value
1  O=P(O)(O)CP(=O)(O)O [Compound 29, Methanediphosphonate]         pKi            4.49

Query compound follows.
State, in one line, measured pKi of O=S(=O)(O)CS(=O)(=O)O [Compound 31, Methanedisulfonate] 4.57
